- method summary: collision cross section of modified peptide (TIMS, N2, iRT-aligned); higher = larger / more extended gas-phase ion
- condition label: charge state: 3; modification: Biotin
± gives the standard deviation.
Kindly supply the reported collision cross section values for the records listed here.

Tell us which collision cross section value is on record for DYSSGFGGKYGVQADR [_DYSSGFGGK(Biotin)YGVQADR_] 509.9 ± 0.34 Å²

Tell us which collision cross section value is on record for IVSGKDYNVTANSK [_IVSGK(Biotin)DYNVTANSK_] 508.73 Å²

Tell us which collision cross section value is on record for TQAYQDQKPGTSGLR [_TQAYQDQK(Biotin)PGTSGLR_] 500.74 ± 0.34 Å²

Tell us which collision cross section value is on record for FDDTNPEKEEAK [_FDDTNPEK(Biotin)EEAK_] 504.96 ± 0.34 Å²

Tell us which collision cross section value is on record for YEQEHAAIQDKLFQVAK [_YEQEHAAIQDK(Biotin)LFQVAK_] 538 ± 1.6 Å²

Tell us which collision cross section value is on record for DASTLQSQKAEGTGDAK [_DASTLQSQK(Biotin)AEGTGDAK_] 520.24 ± 1.3 Å²

Tell us which collision cross section value is on record for HELQANCYEEVKDR [_HELQANCYEEVK(Biotin)DR_] 512.53 ± 1.6 Å²

Tell us which collision cross section value is on record for KYEEIDNAPEER [_K(Biotin)YEEIDNAPEER_] 521.46 ± 0.34 Å²

Tell us which collision cross section value is on record for GEVGAGAGPGAQAGPSAKR [_GEVGAGAGPGAQAGPSAK(Biotin)R_] 470.58 ± 2.6 Å²

Tell us which collision cross section value is on record for LEEVTGKLQVAR [_LEEVTGK(Biotin)LQVAR_] 494.02 ± 0.34 Å²

Tell us which collision cross section value is on record for ANEKTESSSAQQVAVSR [_ANEK(Biotin)TESSSAQQVAVSR_] 569.61 ± 0.95 Å²

Tell us which collision cross section value is on record for GTITVSAQELKDNR [_GTITVSAQELK(Biotin)DNR_] 500.75 Å²

Tell us which collision cross section value is on record for LDHLAEKFR [_LDHLAEK(Biotin)FR_] 452.58 Å²

Tell us which collision cross section value is on record for AAQASDLEKIHLDEK [_AAQASDLEK(Biotin)IHLDEK_] 515.52 Å²

Tell us which collision cross section value is on record for GFALVGVGSEASSKK [_GFALVGVGSEASSK(Biotin)K_] 494.71 ± 0.97 Å²

Tell us which collision cross section value is on record for LQEKVESAQSEQK [_LQEK(Biotin)VESAQSEQK_] 526.98 ± 0.34 Å²

Tell us which collision cross section value is on record for DTPTSAGPNSFNKGK [_DTPTSAGPNSFNK(Biotin)GK_] 478.46 Å²

Tell us which collision cross section value is on record for PANEKATDDYHYEK [_PANEK(Biotin)ATDDYHYEK_] 529.25 ± 3.6 Å²

Tell us which collision cross section value is on record for GSLGAQKLANTCFNEIEK [_GSLGAQK(Biotin)LANTCFNEIEK_] 538.06 ± 0.96 Å²

Tell us which collision cross section value is on record for TEVLSPNSKVESK [_TEVLSPNSK(Biotin)VESK_] 487.32 ± 1.7 Å²

Tell us which collision cross section value is on record for DDSFLGKLGGTLAR [_DDSFLGK(Biotin)LGGTLAR_] 505.13 Å²

Tell us which collision cross section value is on record for DESFLGKLGGTLAR [_DESFLGK(Biotin)LGGTLAR_] 506.47 Å²

Tell us which collision cross section value is on record for LGVATVAKGVCGACK [_LGVATVAK(Biotin)GVCGACK_] 507.7 Å²

Tell us which collision cross section value is on record for GETASKLQSEISR [_GETASK(Biotin)LQSEISR_] 475.24 ± 0.34 Å²

Tell us which collision cross section value is on record for DFDTALKHYDK [_DFDTALK(Biotin)HYDK_] 488.66 Å²

Tell us which collision cross section value is on record for DYSAPVNFISAGLKK [_DYSAPVNFISAGLK(Biotin)K_] 548.62 Å²

Tell us which collision cross section value is on record for FSAYIKNSNPALNDNLEK [_FSAYIK(Biotin)NSNPALNDNLEK_] 526.24 Å²

Tell us which collision cross section value is on record for SKHLQEQLNELK [_SK(Biotin)HLQEQLNELK_] 520.89 Å²

Tell us which collision cross section value is on record for SLEEEGAAHSGKR [_SLEEEGAAHSGK(Biotin)R_] 493.19 Å²

Tell us which collision cross section value is on record for PSVGSQSNQAGQGKR [_PSVGSQSNQAGQGK(Biotin)R_] 480.61 ± 0.34 Å²

Tell us which collision cross section value is on record for AGPNASIISLKSDK [_AGPNASIISLK(Biotin)SDK_] 469.41 Å²

Tell us which collision cross section value is on record for ALASIDSKLNQAK [_ALASIDSK(Biotin)LNQAK_] 481.19 Å²

Tell us which collision cross section value is on record for LQAAYAGDKADDIQK [_LQAAYAGDK(Biotin)ADDIQK_] 511.95 ± 0.34 Å²

Tell us which collision cross section value is on record for VTLEVGKVIQQGR [_VTLEVGK(Biotin)VIQQGR_] 501.27 Å²

Tell us which collision cross section value is on record for ITLSKHQNVQLPR [_ITLSK(Biotin)HQNVQLPR_] 502.67 Å²

Tell us which collision cross section value is on record for IHVQSSSDSSDEPAEKR [_IHVQSSSDSSDEPAEK(Biotin)R_] 513.52 Å²

Tell us which collision cross section value is on record for GTISAPGKVVTAAAQAK [_GTISAPGK(Biotin)VVTAAAQAK_] 550.8 ± 0.34 Å²

Tell us which collision cross section value is on record for ATVASSTQKFQDLGVK [_ATVASSTQK(Biotin)FQDLGVK_] 516.43 ± 0.96 Å²

Tell us which collision cross section value is on record for LQDVSGQLSSSKK [_LQDVSGQLSSSK(Biotin)K_] 506.69 Å²

Tell us which collision cross section value is on record for DHLSDKESK [_DHLSDK(Biotin)ESK_] 429.55 Å²

Tell us which collision cross section value is on record for IQQELQTAKK [_IQQELQTAK(Biotin)K_] 468.38 ± 0.34 Å²

Tell us which collision cross section value is on record for AAINQKLIETGER [_AAINQK(Biotin)LIETGER_] 497.24 Å²

Tell us which collision cross section value is on record for SSGPGGQNVNKVNSK [_SSGPGGQNVNK(Biotin)VNSK_] 467.62 ± 0.34 Å²

Tell us which collision cross section value is on record for VSPASSVDSNIPSSQGYKK [_VSPASSVDSNIPSSQGYK(Biotin)K_] 539.94 ± 1.6 Å²

Tell us which collision cross section value is on record for AGQKLIDVNHYAK [_AGQK(Biotin)LIDVNHYAK_] 517.92 ± 3.1 Å²

Tell us which collision cross section value is on record for LLFSNTAAQKLR [_LLFSNTAAQK(Biotin)LR_] 503.51 Å²
